Just for reference, patent US11912703B2 is where these values come from.

# Tested system: human TLR8 (Homo sapiens (Human), UniProt Q9NR97)
# Sequence (Q9NR97 27-1041): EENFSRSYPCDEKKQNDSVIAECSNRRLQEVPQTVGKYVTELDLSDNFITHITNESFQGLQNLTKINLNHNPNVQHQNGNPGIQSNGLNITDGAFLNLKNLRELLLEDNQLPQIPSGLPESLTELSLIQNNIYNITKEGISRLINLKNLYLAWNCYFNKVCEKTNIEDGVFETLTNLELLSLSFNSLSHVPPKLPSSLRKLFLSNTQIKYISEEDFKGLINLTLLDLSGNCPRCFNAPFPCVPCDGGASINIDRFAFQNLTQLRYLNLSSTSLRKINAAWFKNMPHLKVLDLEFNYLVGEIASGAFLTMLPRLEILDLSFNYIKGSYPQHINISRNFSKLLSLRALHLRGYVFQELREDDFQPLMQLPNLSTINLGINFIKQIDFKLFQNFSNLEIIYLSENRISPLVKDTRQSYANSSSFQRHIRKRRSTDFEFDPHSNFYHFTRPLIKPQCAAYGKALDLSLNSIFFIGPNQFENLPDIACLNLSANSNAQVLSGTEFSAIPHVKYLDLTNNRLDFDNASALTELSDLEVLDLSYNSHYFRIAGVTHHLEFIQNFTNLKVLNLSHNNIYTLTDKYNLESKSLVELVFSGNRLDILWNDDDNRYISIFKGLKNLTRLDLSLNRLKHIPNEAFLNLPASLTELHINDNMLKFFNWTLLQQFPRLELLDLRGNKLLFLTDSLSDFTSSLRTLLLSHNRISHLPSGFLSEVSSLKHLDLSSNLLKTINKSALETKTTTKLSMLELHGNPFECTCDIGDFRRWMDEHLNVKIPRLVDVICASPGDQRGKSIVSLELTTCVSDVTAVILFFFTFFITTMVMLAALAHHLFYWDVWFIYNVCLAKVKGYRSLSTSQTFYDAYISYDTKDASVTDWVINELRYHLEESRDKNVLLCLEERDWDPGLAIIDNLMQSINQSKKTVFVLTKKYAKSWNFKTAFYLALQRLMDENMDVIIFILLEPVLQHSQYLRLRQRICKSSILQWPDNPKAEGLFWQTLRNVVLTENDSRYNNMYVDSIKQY
# Test details: TLR8 inhibition reporter assay (HEK-Blue SEAP)
# Assay setup: read-out: TLR8 IC50; HEK-Blue cells overexpressing human TLR8, R848 15.9 μM stimulation, SEAP reporter
pIC50: −log10 of the molar value.
// label = met if pIC50 is not less than 8, otherwise not met

Below are worked cases with known answers.
COc1cc(-c2[nH]c3cnc(N4CCNCC4)c(F)c3c2C(C)C)cn2ncnc12    met
COc1cc(-c2[nH]c3cnc(C4CCC(NC5(C)COC5)CC4)c(F)c3c2C(C)C)cn2ncnc12 (centres unmarked) [Example 192]    met
CNCCN1CCC(c2cc3c(C)c(-c4ccc(OC)c(OC)c4)[nH]c3cn2)CC1    not met
Cc1cc(-c2[nH]c3cnc(C4CCN(C(=O)CN(C)C)CC4)c(F)c3c2C(C)C)cn2ncnc12 [Example 66]    met
Cc1cc(-c2[nH]c3cnc(C4CCN(C5CCOCC5)CC4)c(F)c3c2C(C)C)cn2ncnc12    met

Now for a further compound.
pIC50 >= 8 for Cc1c(-c2[nH]c3cnc(N4CCC(NC(C)C)CC4)c(F)c3c2C(C)C)cn2ncnc2c1C ?
met

###

# Tested system: human TLR8 (Homo sapiens (Human))
# Test details: TLR8 inhibition reporter assay (HEK-Blue SEAP)
# Assay setup: read-out: TLR8 IC50; HEK-Blue cells overexpressing human TLR8, R848 15.9 μM stimulation, SEAP reporter
Quantity measured: IC50 (nM)
Give bare numbers, in nM.

See these solved cases before continuing.
COc1cc(-c2[nH]c3cnc(N4CC5(C4)CN(C4CCC4)C5)c(F)c3c2C(C)C)cn2ncnc12 [Example 381]    11
COc1cc(-c2[nH]c3cnc(C4CCC(N5CCC5)CC4)cc3c2C(C)C)cn2ncnc12 (stereo not shown) [Example 324]    20
COc1cc(-c2[nH]c3cnc(C4CCC(N5CC6(COC6)C5)C4)cc3c2C(C)C)cn2ncnc12 (stereo not shown) [Example 209]    97

Batch request: IC50 for each of the following compounds.
1. Cc1c(N2CCC(NCC(C)(C)C)CC2)ncc2[nH]c(-c3cc(C)c4ncnn4c3)c(C(C)C)c12 [Example 112]
2. Cc1c(N2CCC(NCC3(C)COC3)CC2)ncc2[nH]c(-c3cc(C)c4ncnn4c3)c(C(C)C)c12 [Example 170]

1: 2.3; 2: 0.71

Answer for every listed entry: what is its IC50? The entries follow.
1. COc1cc(-c2[nH]c3cnc(C4CCC(NCC(C)(C)OC)C4)cc3c2C(C)C)cn2ncnc12 (stereo not shown) [Example 123]
2. Cc1c(N2CCC(N(C)CCC#N)CC2)ncc2[nH]c(-c3cc(C)c4ncnn4c3)c(C(C)C)c12 [Example 280]

[31, 1.2]

###

# Tested system: human TLR9 (Homo sapiens (Human))
# Test details: TLR9 inhibition reporter assay (HEK-Blue SEAP)
# Assay setup: read-out: TLR9 IC50; HEK-Blue cells overexpressing human TLR9, ODN2006 5 nM stimulation, SEAP reporter
pIC50: −log10 of the molar value.
Classification field: t = pIC50 at or over 5; f = pIC50 under 5.

COc1cc(-c2[nH]c3cnc(N4CCNCC4)c(C)c3c2C(C)C)cn2ncnc12    t

API: above_or_equal(metric=pIC50, cutoff=5) for item Cc1cc(-c2[nH]c3cnc(C4CCN(C5COC5)CC4)c(F)c3c2C(C)C)cn2ncnc12
f

Is reported pIC50 greater than or equal to 5 here: COc1cc(-c2[nH]c3cnc(C4CCC(N5CC6(COC6)C5)CC4)cc3c2C(C)C)cn2ncnc12 (stereo not drawn)
t

Check this compound for pIC50 at or above 5: CCN(C)C1CCC(c2ncc3[nH]c(-c4cn5ncnc5c(C)c4C)c(C(C)C)c3c2F)CC1 (stereo not drawn) [Example 135]
t

Does pIC50 meet or surpass 5 for CNC(=O)CN1CCC(c2cc3c(C(C)C)c(-c4cn5ncnc5c(C)c4C)[nH]c3cn2)CC1 [Example 26] ?
t

Please indicate if the recorded pIC50 for COc1cc(-c2[nH]c3cnc(C4CCC(NCC5(C)COC5)CC4)c(F)c3c2C(C)C)cn2ncnc12 (stereo not drawn) meets or exceeds 5.
t

Please indicate if the recorded pIC50 for Cc1cc(-c2[nH]c3cnc(C4CCN(C(=O)CN(C)C)CC4)c(F)c3c2C(C)C)cn2ncnc12 [Example 66] meets or exceeds 5.
t

Could you please find out whether COc1cc(-c2[nH]c3cnc(N4CCN(C(=O)CN(C)C)CC4)c(F)c3c2C(C)C)cn2ncnc12 has pIC50 that meets 5 or exceeds it?
t

###

# Tested system: human TLR7 (Homo sapiens (Human), UniProt Q9NYK1)
# Sequence (Q9NYK1 27-1049): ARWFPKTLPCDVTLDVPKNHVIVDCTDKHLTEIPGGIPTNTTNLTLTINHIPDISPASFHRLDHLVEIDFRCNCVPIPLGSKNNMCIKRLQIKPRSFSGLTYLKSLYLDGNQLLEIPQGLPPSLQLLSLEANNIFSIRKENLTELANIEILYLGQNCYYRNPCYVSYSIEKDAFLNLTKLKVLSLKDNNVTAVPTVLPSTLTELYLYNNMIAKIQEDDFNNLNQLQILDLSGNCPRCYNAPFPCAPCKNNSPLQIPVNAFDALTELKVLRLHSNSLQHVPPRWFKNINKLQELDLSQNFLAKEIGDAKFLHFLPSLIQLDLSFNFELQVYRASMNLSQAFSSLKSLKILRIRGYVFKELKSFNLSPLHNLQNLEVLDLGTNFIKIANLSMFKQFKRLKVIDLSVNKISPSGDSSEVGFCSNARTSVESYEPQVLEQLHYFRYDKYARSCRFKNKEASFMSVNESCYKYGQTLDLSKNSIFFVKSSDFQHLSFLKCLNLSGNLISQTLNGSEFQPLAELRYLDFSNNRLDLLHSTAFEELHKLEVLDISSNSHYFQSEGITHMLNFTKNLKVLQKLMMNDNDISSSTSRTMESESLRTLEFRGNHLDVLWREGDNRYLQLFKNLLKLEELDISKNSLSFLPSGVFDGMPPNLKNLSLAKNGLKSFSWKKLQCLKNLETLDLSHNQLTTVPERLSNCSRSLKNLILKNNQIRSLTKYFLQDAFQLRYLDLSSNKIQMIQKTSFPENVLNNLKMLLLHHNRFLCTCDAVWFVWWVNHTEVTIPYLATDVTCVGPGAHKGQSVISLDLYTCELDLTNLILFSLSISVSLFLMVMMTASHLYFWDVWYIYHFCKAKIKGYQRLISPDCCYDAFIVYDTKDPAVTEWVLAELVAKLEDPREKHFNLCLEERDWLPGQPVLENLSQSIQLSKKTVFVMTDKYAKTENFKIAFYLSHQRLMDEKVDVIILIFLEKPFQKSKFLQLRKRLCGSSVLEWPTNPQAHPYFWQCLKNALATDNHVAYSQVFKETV
# Test details: TLR7 inhibition reporter assay (HEK-Blue SEAP)
# Assay setup: HEK-Blue cells overexpressing human TLR7, gardiquimod 7.5 μM stimulation
With a cut-off of 3 nM, any IC50 strictly below it is called true (1); any IC50 meeting it or above is called false (0).

COc1cc(-c2[nH]c3cnc(N4CCN(CC(N)=O)CC4)cc3c2C(C)C)cn2ncnc12 [Example 319]    false (0)
Cc1c(-c2[nH]c3cnc(C4CCC(NCC(C)(C)O)CC4)c(C)c3c2C(C)C)cn2ncnc2c1C (stereo not shown) [Example 122]    false (0)
COc1cc(-c2[nH]c3cnc(N4CCC(NC(=O)CN(C)C)CC4)cc3c2C(C)C)cn2ncnc12 [Example 344]    true (1)
COc1cc(-c2[nH]c3cnc(N4CCN(C5CCN(C(C)C)CC5)C[C@H]4C)c(F)c3c2C(C)C)cn2ncnc12 [Example 451]    true (1)
COc1cc(-c2[nH]c3cnc(C4CCC(N5CC6(COC6)C5)CC4)cc3c2C(C)C)cn2ncnc12 (stereo not shown) [Example 309]    false (0)
Cc1cc(-c2[nH]c3cnc(N4CCC(N(C)C5COC5)CC4)c(F)c3c2C(C)C)cn2ncnc12 [Example 130]    true (1)

Next molecule, please.
Would you kindly verify if IC50 of COc1cc(-c2[nH]c3cnc(C4CCC(NC5COC5)CC4)cc3c2C(C)C)cn2ncnc12 (stereo not shown) [Example 308] is strictly less than 3 nM?
false (0)

###

For each of the molecules below, state its pIC50.
# Tested system: human TLR8 (Homo sapiens (Human), UniProt Q9NR97)
# Test details: TLR8 inhibition reporter assay (HEK-Blue SEAP);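 further: SEAP driven by IFN-β minimal promoter with five NF-κB and AP-1 sites, compounds tested 0.05 nM to 50 µM, 22 h incubation, inhibition relative to agonist plus DMSO wells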
# Assay setup: read-out: TLR8 IC50; HEK-Blue cells overexpressing human TLR8, R848 15.9 μM stimulation, SEAP reporter
Give bare numbers, as −log10 of the molar value.

Cc1c(-c2[nH]c3cnc(N4CC5(CN(C)C5)C4)c(F)c3c2C(C)C)cn2ncnc2c1C    6.08
COc1cc(-c2[nH]c3cnc(C4CCC(N5CC6(COC6)C5)C4)cc3c2C(C)C)cn2ncnc12 (stereo not shown) [Example 141]    7.60

Kindly consider the entry below.
Note down pIC50 recorded for COc1cc(-c2[nH]c3cnc(C4CCC(NCC(C)(C)OC)CC4)c(C)c3c2C(C)C)cn2ncnc12 (stereo not shown) [Example 206]
7.89

###

# Tested system: human TLR7 (Homo sapiens (Human), UniProt Q9NYK1)
# Test details: TLR7 inhibition reporter assay (HEK-Blue SEAP)
# Assay setup: HEK-Blue cells overexpressing human TLR7, gardiquimod 7.5 μM stimulation
Would you mind telling me the reported IC50 of each entry?
Numbers only, in nM.

# count of solved cases: 2
Cc1cc(-c2[nH]c3cnc(C4CCC(N(C)C(C)C)CC4)c(F)c3c2C(C)C)cn2ncnc12 (stereo not shown) [Example 108]    2.1
COc1cc(-c2[nH]c3cnc(N4CCN(CC(N)=O)CC4)c(F)c3c2C(C)C)cn2ncnc12    3.6

For every record below, what is its IC50?
1. Cc1cc(-c2[nH]c3cnc(C4CCN(C(=O)CN(C)C)CC4)c(F)c3c2C(C)C)cn2ncnc12 [Example 66]
2. CNC(=O)CN(C)C1CCN(c2ncc3[nH]c(-c4cc(OC)c5ncnn5c4)c(C(C)C)c3c2F)CC1
3. COc1cc(-c2[nH]c3cnc(C4CCC(N5CC6(COC6)C5)CC4)c(C)c3c2C(C)C)cn2ncnc12 (stereo not shown) [Example 246]
4. Cc1c(-c2[nH]c3cnc(N4CCNCC4)c(F)c3c2C(C)C)cn2ncnc2c1C
5. CCN(C)C1CCN(c2ncc3[nH]c(-c4cc(C)c5ncnn5c4)c(C(C)C)c3c2F)CC1

1. 2.1
2. 1.1
3. 2
4. 1.4
5. 0.55

###

Task for the reader: assign each of the following molecules its reported pIC50.
# Tested system: human TLR9 (Homo sapiens (Human), UniProt Q9NR96)
# Sequence (Q9NR96 26-1032): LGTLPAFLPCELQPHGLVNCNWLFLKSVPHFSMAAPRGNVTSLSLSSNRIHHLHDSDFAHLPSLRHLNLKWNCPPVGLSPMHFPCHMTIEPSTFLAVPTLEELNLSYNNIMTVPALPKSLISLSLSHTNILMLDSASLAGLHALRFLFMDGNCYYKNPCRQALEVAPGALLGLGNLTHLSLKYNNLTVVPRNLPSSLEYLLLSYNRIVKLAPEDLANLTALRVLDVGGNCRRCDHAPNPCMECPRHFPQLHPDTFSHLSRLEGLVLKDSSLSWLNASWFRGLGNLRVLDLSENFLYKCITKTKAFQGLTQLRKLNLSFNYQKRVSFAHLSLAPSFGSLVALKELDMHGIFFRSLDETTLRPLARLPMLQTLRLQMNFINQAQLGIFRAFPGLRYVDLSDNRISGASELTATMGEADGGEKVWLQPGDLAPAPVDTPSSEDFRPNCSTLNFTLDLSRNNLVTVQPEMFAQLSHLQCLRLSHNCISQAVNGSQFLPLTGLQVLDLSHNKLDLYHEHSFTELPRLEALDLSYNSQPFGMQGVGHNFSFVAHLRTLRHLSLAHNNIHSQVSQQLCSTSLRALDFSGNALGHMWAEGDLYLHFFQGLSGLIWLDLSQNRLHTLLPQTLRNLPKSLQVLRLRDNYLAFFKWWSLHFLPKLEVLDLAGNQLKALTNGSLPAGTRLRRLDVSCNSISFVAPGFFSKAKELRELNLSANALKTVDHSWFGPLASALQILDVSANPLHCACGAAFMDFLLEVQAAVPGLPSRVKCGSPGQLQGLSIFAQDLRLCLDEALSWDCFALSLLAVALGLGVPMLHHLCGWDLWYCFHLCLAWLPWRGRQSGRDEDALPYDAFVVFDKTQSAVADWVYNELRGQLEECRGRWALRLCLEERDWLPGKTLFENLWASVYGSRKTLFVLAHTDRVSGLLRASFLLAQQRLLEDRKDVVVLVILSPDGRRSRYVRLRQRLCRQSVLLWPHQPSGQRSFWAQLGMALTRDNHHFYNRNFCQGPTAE
# Test details: TLR9 inhibition reporter assay (HEK-Blue SEAP);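 further: SEAP driven by IFN-β minimal promoter carrying five NF-κB and AP-1 sites, 22 h at 37 °C, compounds 0.05 nM–50 µM, inhibition scaled between agonist-plus-DMSO and reference-inhibitor wells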
# Assay setup: read-out: TLR9 IC50; HEK-Blue cells overexpressing human TLR9, ODN2006 5 nM stimulation, SEAP reporter
One number for each entry, as −log10 of the molar value.

Example entries begin here.
Cc1c(-c2[nH]c3cnc(C4CCC(NCC5(C)COC5)CC4)c(F)c3c2C(C)C)cn2ncnc2c1C (stereo not drawn) [Example 171]    5.71
COc1cc(-c2[nH]c3cnc(N4CCC(N(C)C5COC5)CC4)cc3c2C(C)C)cn2ncnc12    5.43
COc1cc(-c2[nH]c3cnc(N4CCC(N(C)C5COC5)CC4)c(F)c3c2C(C)C)cn2ncnc12    5.28
COc1cc(-c2[nH]c3cnc(C4CCC(NC5COC5)CC4)cc3c2C(C)C)cn2ncnc12 (stereo not drawn) [Example 308]    6.80
Cc1c(-c2[nH]c3cnc(N4CCNCC4)c(F)c3c2C(C)C)cn2ncnc2c1C    5.06
Cc1c(-c2[nH]c3cnc(C4CCNCC4)c(F)c3c2C(C)C)cn2ncnc2c1C    5.56
Cc1cc(-c2[nH]c3cnc(N4CCC(N(C)CC(F)F)CC4)c(F)c3c2C(C)C)cn2ncnc12    4.44
COc1cc(-c2[nH]c3cnc(N4CCC(N5CCC5)CC4)c(C)c3c2C(C)C)cn2ncnc12    6.15
Cc1c(-c2[nH]c3cnc(N4CCN(C(=O)CN(C)C)CC4)c(F)c3c2C(C)C)cn2ncnc2c1C    5.17
COc1cc(-c2[nH]c3cnc(C4CCC(N5CC6(COC6)C5)CC4)c(C)c3c2C(C)C)cn2ncnc12 (stereo not drawn) [Example 246]    6.15

Hi! Can you tell me pIC50 for each of these molecules?
1. Cc1c(N2CCC(N(C)CCC#N)CC2)ncc2[nH]c(-c3cc(C)c4ncnn4c3)c(C(C)C)c12
2. Cc1cc(-c2[nH]c3cnc(N4CCC(N(C)CC(N)=O)CC4)c(F)c3c2C(C)C)cn2ncnc12
3. COc1cc(-c2[nH]c3cnc(C4CCC(N(C)CC(N)=O)CC4)c(F)c3c2C(C)C)cn2ncnc12 (stereo not drawn)

5.60
4.76
5.06

Report pIC50 for each item below.
1. COc1cc(-c2[nH]c3cnc(N4CCC(NC(C)C)CC4)c(C)c3c2C(C)C)cn2ncnc12
2. Cc1cc(-c2[nH]c3cnc(C4CCC(NCC(C)(C)C)CC4)c(F)c3c2C(C)C)cn2ncnc12 (stereo not drawn) [Example 260]

[5.61, 6.08]
